// MIC lookup, one value per entry
# Tested on: P. aeruginosa ATCC 27853
# test: CLSI broth dilution MIC determination
# Type: cell-based
# assay.conditions: Pseudomonas aeruginosa, ATCC27853; P. aeruginosa ATCC 27853 (MP-3); read-out: MIC

# count of solved cases: 3
compound	MIC
CC[C@H]1OC(=O)[C@@](C)(F)C(=O)[C@H](C)[C@@H](O[C@@H]2OC(C)CC(N(C)C)C2O)[C@](C)(OC)C[C@@H](C)C(=O)[C@H](C)[C@H]2N(CC#CCn3cc(-c4ccnc(N)n4)nn3)C(=O)O[C@]12C (stereo partly shown)	64 µg/mL
CC[C@H]1OC(=O)[C@@](C)(F)C(=O)[C@H](C)[C@@H](O[C@@H]2OC(C)CC(N(C)C)C2O)[C@](C)(OC)C[C@@H](C)C(=O)[C@H](C)[C@H]2N(CC#CCn3cc(-c4cccc(N)c4)nn3)C(=O)O[C@]12C (stereo partly shown)	> 32 µg/mL
CC[C@H]1OC(=O)[C@@](C)(F)C(=O)[C@H](C)[C@@H](O[C@@H]2OC(C)CC(N(C)C)C2O)[C@](C)(OC)C[C@@H](C)C(=O)[C@H](C)[C@H]2N(CC#CCn3cc(-c4cccnn4)nn3)C(=O)O[C@]12C (stereo partly shown)	> 64 µg/mL

Entry CC[C@H]1OC(=O)[C@@](C)(F)C(=O)[C@H](C)[C@@H](O[C@@H]2OC(C)CC(N(C)C)C2O)[C@](C)(OC)C[C@@H](C)C(=O)[C@H](C)[C@H]2N(CC#CCn3cc(-c4ncccn4)nn3)C(=O)O[C@]12C (stereo partly shown) , tested on P. aeruginosa ATCC 27853, has a reported MIC of > 64 µg/mL

---

// MIC lookup, one value per entry
# System: S. pneumoniae erm B + mef A genotype
# test: CLSI broth dilution MIC determination
# Type: cell-based
# assay.conditions: Streptococcus pneumoniae
# From the text: MIC data was collected for the novel macrolides that this platform has produced against over 21 unique strains of B. subtilis, E. coli, S. aureus, S. pneumoniae, and H. influenzae, including several multidrug-resistant strains, with a special focus on macrolide resistant mechanisms (vide supra). Azithromycin (Azithro) and Solithromycin (Solithro) were included as a control macrolides in many cases. CLSI standard procedures for broth dilution MIC determination were used. […]
// return numeric value only (unit: mg/L, not printed)

# count of solved cases: 2
molecule	MIC / mg/L
CC[C@H]1OC(=O)[C@@](C)(F)C(=O)[C@H](C)[C@@H](O[C@@H]2OC(C)CC(N(C)C)C2O)[C@](C)(OC)C[C@@H](C)C(=O)C[C@H]2N(CCCCn3cc(-c4cccc(N)c4)nn3)C(=O)O[C@]12C (stereo partly shown)	8
C=C1C(=O)[C@H](C)C[C@@](C)(OC)[C@H](O[C@@H]2OC(C)CC(N(C)C)C2O)[C@@H](C)C(=O)[C@@H](C)C(=O)O[C@H](CC)[C@@]2(C)OC(=O)N(CCCCn3cc(-c4cccc(N)c4)nn3)[C@H]12 (stereo partly shown)	32

// next item, MIC requested
MIC for CC[C@H]1OC(=O)[C@H](C)C(=O)[C@H](C)[C@@H](O[C@@H]2OC(C)CC(N(C)C)C2O)[C@](C)(OC)C[C@@H](C)C(=O)C[C@H]2N(CCCCn3cc(-c4cccc(N)c4)nn3)C(=O)O[C@]12C (stereo partly shown) is 8
